All figures here come from ChEMBL document CHEMBL3526093.

# half-life listing for each entry below
assay: Half life under physiological conditions; format: ADME
Response body: numeric value in min, unit text excluded.

compound_string=C/C=C(/C(=C1C=CC(=O)C=C1)c1ccccc1)c1ccccc1 readout_label=half-life recorded_number=240

Could you share which half-life value was measured for C/C=C(/C(=C1C=CC(=O)C=C1)c1ccc(OCCN(C)C)cc1)c1ccccc1 ?
180
